tested on: P. aeruginosa strain ATCC 17647; experiment: Minimal Biofilm Eradicating Concentration (MBEC), Calgary Biofilm Device; format: cell-based, Pseudomonas aeruginosa; settings: 24 h biofilm, 24 h treatment; minimum concentration removing >95% of biofilm biomass (crystal violet)
Consider the following molecules; for each one, report its MBEC.
Numbers only, in µg/mL.

molecule="GN146: Modified GN4, amino acid substitutions (K99D, R115H), SEQ ID NO: 4 (protein) MRTSQRGIDLIKSFEGLRLSAYQDSVGVWTIGYGTTRGVTRYMTITVEQAERMLSNDIQRFEPELDRLAKVPLNQNQWDALMSFVYNLGAANLASSTLLDLLNKGDYQGAADQFPHWVNAGGKRLDGLVKRRAAERALFLEPLS" recorded_value=2

Now turn to the next molecule.
Reported MBEC for GN13: Native lysin, GenBank YP_00638255.1, SEQ ID NO: 23 (protein, Pseudomonas phage Lu11) MSDKRVEITGNVSGFFESGGRGVKTVSTGKGDNGGVSYGKHQLASNNGSMALFLESPFGAPYRAQFAGLKPGTAAFTSVYNKIANETPTAFERDQFQYIAASHYDPQAAKLKAEGINVDDRHVAVRECVFSVAVQYGRNTSIIIKALGSNFRGSDKDFIEKVQDYRGATVNTYFKSSSQQTRDSVKNRSQQEKQMLLKLLNS : what is it?
0.125
